# experimental-system: S1-biotin(ACRO)
# measurement-notes: BLI
Recorded Kd, one value per entry.
State just the number; it will be interpreted in nM.

Past entries and their recorded results:
binder="Ab 20 (scFv, V domains shown) VH: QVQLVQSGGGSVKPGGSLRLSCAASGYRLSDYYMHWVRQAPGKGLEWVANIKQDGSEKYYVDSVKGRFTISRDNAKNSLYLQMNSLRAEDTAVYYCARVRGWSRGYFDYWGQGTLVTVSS VL: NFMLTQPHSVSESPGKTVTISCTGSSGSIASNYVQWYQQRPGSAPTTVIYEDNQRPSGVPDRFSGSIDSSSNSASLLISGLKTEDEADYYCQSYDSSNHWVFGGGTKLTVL" measured_number=5.01
binder="Ab 13 (scFv, V domains shown) VH: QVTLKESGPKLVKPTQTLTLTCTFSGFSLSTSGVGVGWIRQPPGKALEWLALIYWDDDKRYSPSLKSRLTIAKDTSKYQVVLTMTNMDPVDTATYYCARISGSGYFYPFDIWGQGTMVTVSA VL: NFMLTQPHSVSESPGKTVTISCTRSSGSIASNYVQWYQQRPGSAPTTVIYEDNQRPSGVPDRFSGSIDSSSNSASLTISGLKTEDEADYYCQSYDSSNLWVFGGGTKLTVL" measured_number=1.14
binder="Ab 21 (scFv, V domains shown) VH: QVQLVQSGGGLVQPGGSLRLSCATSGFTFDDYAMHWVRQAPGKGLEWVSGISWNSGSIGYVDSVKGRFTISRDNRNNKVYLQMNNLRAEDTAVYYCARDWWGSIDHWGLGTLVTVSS VL: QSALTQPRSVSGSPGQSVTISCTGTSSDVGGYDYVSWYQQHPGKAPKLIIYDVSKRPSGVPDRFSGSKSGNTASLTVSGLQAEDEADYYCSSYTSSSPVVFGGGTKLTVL" measured_number=1.28
binder="Ab 17 (scFv, V domains shown) VH: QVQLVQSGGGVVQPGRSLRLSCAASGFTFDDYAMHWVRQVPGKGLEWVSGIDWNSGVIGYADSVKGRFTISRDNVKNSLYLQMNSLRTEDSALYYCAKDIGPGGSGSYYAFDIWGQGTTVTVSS VL: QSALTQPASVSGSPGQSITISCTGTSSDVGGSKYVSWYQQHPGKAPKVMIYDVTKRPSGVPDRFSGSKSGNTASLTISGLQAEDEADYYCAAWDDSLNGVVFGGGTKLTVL" measured_number=0.716
binder="Ab 18 (scFv, V domains shown) VH: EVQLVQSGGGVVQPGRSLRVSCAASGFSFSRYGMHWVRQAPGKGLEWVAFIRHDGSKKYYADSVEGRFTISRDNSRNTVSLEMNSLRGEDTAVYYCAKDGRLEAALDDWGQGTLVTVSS VL: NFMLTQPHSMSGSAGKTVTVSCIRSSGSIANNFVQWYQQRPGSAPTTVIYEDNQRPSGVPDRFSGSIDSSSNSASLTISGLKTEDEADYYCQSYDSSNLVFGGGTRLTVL" measured_number=0.121

Exercise: Return value of Kd for input Ab 16 (scFv, V domains shown) VH: QVQLVQSGGGVVQPGRSLRLSCAASGFTFSNYGMHWVRQAPGKGLEWVALIWERGSKKDYADSVKGRFTVSRDNSKNTLYLQMNSLRPEDTAVYFCAREGISMTGAEYFQHWGQGTLVTVSS VL: QSVLTQPPSVSGSPGQRVTMSCTGSSSNIGAGYDVHWYQQVPGAAPRLLIYGTNNRPSGVPDRFSGSKSGTSASLTITGLQAEDEADYYCQSYDNSLTDPYVFGTGTKVTVL , no commentary.
Solution: 2.18

Source: patent US20240409617A1
